test system: RAW-Dual (murine macrophage reporter line); assay: viability score (confluency relative to resting cells, overnight) (fraction); higher = more viable, active = viable (0.7 or more); conditions: modulator concentration 10 µM
Output constraint: value belongs to active, inactive

IN: Could you kindly confirm the outcome this assay logged for `CCCCNc1ccc(C(=O)OCCN(C)C)cc1.Cl` ?
OUT: active

IN: // same read-out, input: `COCCOCC1CCN(C(=O)c2cc(-c3cccc(OC)c3)n[nH]2)CC1`
OUT: active

IN: Proceed to `COc1ccc(-c2cc(CNC(=O)C3CCC3)no2)cc1`
OUT: active

====

system: RAW-Dual (murine macrophage reporter line); test: NF-kB reporter (SEAP) activity fold change vs agonist alone; higher = enhanced NF-kB activity; conditions: modulator concentration 10 µM; agonist: CpG ODN 1826 0.5 ug/mL
Field: NF-kB reporter. Provide a value for each of the molecules that follow.

[[record]]
molecule = "Cn1cnc2c(F)c(Nc3ccc(Br)cc3F)c(C(=O)NOCCO)cc21"
tested_on = "RAW-Dual (murine macrophage reporter line)"
assay_readout = "NF-kB reporter"
result = 0.822

[[record]]
molecule = "CCN(CC)C(=O)C(=Cc1ccc(Br)cc1)NC(=O)c1ccccc1OC"
tested_on = "RAW-Dual (murine macrophage reporter line)"
assay_readout = "NF-kB reporter"
result = 1.06

[[record]]
molecule = "Cc1ccc(S(=O)(=O)N2CCN(C(C)C)CC2)cc1"
tested_on = "RAW-Dual (murine macrophage reporter line)"
assay_readout = "NF-kB reporter"
result = 1.13

[[record]]
molecule = "CN(C)CCCN1c2ccccc2Sc2ccccc21.Cl"
tested_on = "RAW-Dual (murine macrophage reporter line)"
assay_readout = "NF-kB reporter"
result = 0.791

[[record]]
molecule = "O=C(CCc1ccc(F)c(Cl)c1)NCCn1nccn1"
tested_on = "RAW-Dual (murine macrophage reporter line)"
assay_readout = "NF-kB reporter"
result = 1.06

[[record]]
molecule = "O=C(O)c1cc(S(=O)(=O)N2CCCCC2)c(Cl)cc1Cl"
tested_on = "RAW-Dual (murine macrophage reporter line)"
assay_readout = "NF-kB reporter"
result = 0.937


List the reported NF-kB reporter of each molecule below.
1. CN(C(=NS(=O)(=O)c1ccccc1)c1ccccc1)c1ccc(O)cc1
2. O=C(O)CC(C(=O)O)N1C(=O)C(=C2C(=O)Nc3ccc(Br)cc32)SC1=S (configuration not stated)

OUT:
1.05
0.775

====

tested on: RAW-Dual (murine macrophage reporter line); experiment: NF-kB reporter (SEAP) activity fold change vs agonist alone; higher = enhanced NF-kB activity; conditions: modulator concentration 10 µM; agonist: MPLA […]
Assay Readout: NF-kB reporter
Numbers only.

Past entries and their recorded results:
[[record]]
compound = "CCOC(=O)C1=C(N)OC(C)=C(C(=O)OC)C1c1cccnc1 (configuration not stated)"
tested_on = "RAW-Dual (murine macrophage reporter line)"
numeric_result = 1.16

[[record]]
compound = "Cc1ccc([N+](=O)[O-])cc1S(=O)(=O)N(C)C"
tested_on = "RAW-Dual (murine macrophage reporter line)"
numeric_result = 1

[[record]]
compound = "CC(C)NCC(O)COc1cccc2[nH]ccc12 (configuration not stated) [Prestw-90]"
tested_on = "RAW-Dual (murine macrophage reporter line)"
numeric_result = 1.13

[[record]]
compound = "O=C(CN1CCCCC1)NN=Cc1ccccc1OCc1ccccc1"
tested_on = "RAW-Dual (murine macrophage reporter line)"
numeric_result = 0.927


Each compound below has a recorded value; state its NF-kB reporter.
1. O=C(Nc1cc(C(F)(F)F)cc(C(F)(F)F)c1)c1cccc(Br)c1
2. O=C(NCc1cccc(Cl)c1)c1cnc2n(c1=O)CCS2
3. CCn1c(=O)c(-c2ccn[nH]2)cc2c(C)nc(N)nc21
4. CC(=O)NC(NC(C)=O)c1cccc([N+](=O)[O-])c1
5. CN(C)CCOC(c1ccc(Cl)cc1)c1ccccn1.O=C(O)/C=C\C(=O)O (configuration not stated)
6. C=C(C)COc1ccc(-c2ncncc2-c2ccccc2)c(O)c1
7. Cc1ccc2sc(NC(=O)c3cccc(N4C(=O)CCC4=O)c3)nc2c1C
8. Br.O=S(=O)(c1ccc(-c2csc(Nc3ccc(Br)cc3)n2)cc1)N1CCCC1

OUT:
0.911
0.974
1.17
0.998
0.954
0.963
1.11
0.858

Go through the items and report each one's NF-kB reporter.
1. O=C(OCCO)c1cc(Cl)c(C(=O)OCCO)cc1Cl
2. c1ccc(CSc2nnc(-c3ccncc3)[nH]2)cc1
3. COC(=O)C1=C(C)NC(=O)CC1c1c(F)cccc1Cl (configuration not stated)
4. Nc1ncn(C2O[C@H](CO)[C@@H](O)[C@H]2O)c(=O)n1 (some centres not stated) [Prestw-866]
5. Cc1cc(OCC(=O)NCCn2nc(C3CC3)ccc2=O)cc(C)c1Cl

OUT:
[0.936, 1.04, 0.975, 4.32, 1.01]
